# Tested on: Fibrinogen (Alexa647-labelled)
# methodNotes: Alexa647-fibrinogen binding to printed small molecules – biochemical, small-molecule microarray, 635/667 nm fluorescence, artefact control for SMM control-protein annotation, profiling panel (AID 1131);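 also: z-score merges 667 nm fluorescence with per-spot signal-to-noise over triplicate slides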
# setupConditions: fibrinogen-A647 binding fluorescence, higher = more signal
measuredParameter: composite z-score

Problem: // composite z-score lookup, key: COC(=O)[C@@]1(Cc2ccc(F)cc2)[C@H]2c3cc(C(=O)N4CCCC4)n(CCc4ccc(OC)c(Br)c4)c3C[C@H]2CN1C(=O)c1ccccc1
Result: 0.831

Problem: // composite z-score lookup, key: COCCOC(=O)N1C(=O)[C@@]2(c3cc(C#CCC(C(=O)OC)C(=O)OC)ccc31)[C@H](c1ccccc1OCCO)N1[C@H](c3ccccc3)[C@H](c3ccccc3)OC(=O)[C@H]1[C@@H]2C(=O)Nc1nc2ccccc2s1
Result: 0.945

Problem: // composite z-score lookup, key: C=C(COC)C(=O)CC[C@@H](OC(=O)c1ccccc1-c1ccccc1C(=O)O)c1ccc(CO)o1
Result: -0.363

Problem: // composite z-score lookup, key: CO[C@H]1O[C@H](CO)[C@@H](OC(=O)Nc2ccccc2-c2ccccc2)[C@H](OC(=O)Nc2ccccc2-c2ccccc2)[C@H]1OC(=O)Nc1ccccc1-c1ccccc1
Result: 1.02

Problem: // composite z-score lookup, key: [N-]=[N+]=NCc1ccccc1[C@@H]1OC(c2ccc(OCCCO)cc2)=N[C@]1(Cc1ccccc1)C(=O)O
Result: 0.635

Problem: // composite z-score lookup, key: C#C[C@H](O[Si](C#CCCCCCC)(C(C)C)C(C)C)c1ccccc1
Result: -0.152

Shifting focus to the molecule that follows.
Problem: // composite z-score lookup, key: COC(=O)c1nc2oc1CC[C@@H](CO)NC(=O)N(C)Cc1cn(nn1)C[C@H](Cc1ccccc1)NC2=O
Result: 0.0318
